Values from patent US7030140B2

Tested on: HEp-2 (ATCC CCL 23) cells
measured attribute: CC50

// lookup CC50 | system=HEp-2 (ATCC CCL 23) cells | key= CC(=O)CCn1c(Cn2nnc3ccccc32)nc2ccccc21 [Example 37]
59 µM

----------
protocol: in vitro
condition summary: human
Where a name gives a salt, the structure may show the parent alone.
measured attribute: log10 of CC50 at 4 days (log10 of the value in µM)
Remember, log10 of CC50 at 4 days, in µM.

Sample records with log10 of CC50 at 4 days:
| compound | test value |
| --- | --- |
| CC(CCn1c(Cn2nnc3ccccc32)nc2ccccc21)CC(C)(C)C (centres unmarked) | 1.77 |
| c1ccc2c(c1)nnn2Cc1nc2ccccc2n1CCC1OCCO1 | 2.27 |

Give me log10 of CC50 at 4 days for each of these compounds, listed below.
1. N/C(CCn1c(Cn2nnc3ccccc32)nc2ccccc21)=N\O
2. c1cncc(Cn2c(Cn3nnc4ccccc43)nc3ccccc32)c1
3. O=C(Cn1c(Cn2nnc3ccccc32)nc2ccccc21)c1ccccc1
4. CC(C)(C)C(O)Cn1c(Cn2nnc3ccccc32)nc2ccccc21 (centres unmarked)
5. c1ccc(Cn2c(Cn3nnc4ccccc43)nc3ccccc32)cc1

1: 1.20; 2: 2.40; 3: 1.26; 4: 2.07; 5: 1.99

List log10 of CC50 at 4 days for every entry below, keeping the order given.
1. OC(Cn1c(Cn2nnc3ccccc32)nc2ccccc21)c1ccccc1 (centres unmarked)
2. CC(C)(C)OC(=O)CCn1c(Cn2nnc3ccccc32)nc2ccccc21
3. OCCn1c(Cn2nnc3ccccc32)nc2ccccc21
4. CC(C)CCn1c(Cn2nnc3ccccc32)nc2ccccc21
5. c1ccc(CCn2c(Cn3nnc4ccccc43)nc3ccccc32)cc1
6. NC(=O)CCn1c(Cn2nnc3ccccc32)nc2ccccc21
7. c1ccc2c(c1)nnn2Cc1nc2ccccc2n1CC1OCCO1
8. CNC(=O)Cn1c(Cn2nnc3ccccc32)nc2ccccc21

1: 1.56; 2: 2.23; 3: 1.32; 4: 1.60; 5: 0.41; 6: 0.63; 7: 1.46; 8: 2.36

I'm hoping you can list log10 of CC50 at 4 days for every compound here, please.
1. CS(=O)(=O)CCn1c(Cn2nnc3ccccc32)nc2ccccc21
2. CC(C)CCn1c(Cn2nc3ccccc3n2)nc2ccccc21 [Example 61, Dihydrochloride]
3. CS(=O)(=O)OCCn1c(Cn2nnc3ccccc32)nc2ccccc21

[2.30, 1.43, 1.85]
